# System: human cervix carcinoma (HeLa) cells
# TEST SUMMARY: Cytostatic activity, HeLa cell proliferation
# Type: cell-based
# APPLIED CONDITIONS: mean ± SD of three experiments; highest concentration tested 250 µM; 4 days; read-out: Toxicity (IC50) HeLa
ENDPOINT LABEL: pIC50
Quick note: pIC50 values are minus log10 of concentrations in mol/L.

Known pIC50 results, listed for orientation:
MOLECULE	pIC50
CN[C@H](CC(C)C)C(=O)N[C@H]1C(=O)N[C@@H](CC(N)=O)C(=O)N[C@H]2C(=O)N[C@H]3C(=O)N[C@H](C(=O)N[C@H](C(=O)NCC(=O)Nc4ccc(NS(=O)(=O)c5ccccc5)cc4)c4cc(O)cc(O)c4-c4cc3ccc4O)[C@H](O)c3ccc(c(Cl)c3)Oc3cc2cc(c3O[C@@H]2O[C@H](CO)[C@@H](O)[C@H](O)[C@H]2O[C@H]2C[C@](C)(N)[C@H](O)[C@H](C)O2)Oc2ccc(cc2Cl)[C@H]1O [Vanc-60]	4.12
CNC(CC(C)C)C(=O)NC1C(=O)NC(CC(N)=O)C(=O)NC2C(=O)NC3C(=O)NC(C(=O)NC(C(=O)NCCCNC(=O)c4ccc5ccccc5n4)c4cc(O)cc(O)c4-c4cc3ccc4O)C(O)c3ccc(c(Cl)c3)Oc3cc2cc(c3OC2OC(CO)C(O)C(O)C2OC2CC(C)(N)C(O)C(C)O2)Oc2ccc(cc2Cl)C1O (stereo not drawn) [Vanc-27]	4.12

Sure, the documented pIC50 for CNC(CC(C)C)C(=O)NC1C(=O)NC(CC(N)=O)C(=O)NC2C(=O)NC3C(=O)NC(C(=O)NC(C(=O)NCCCNC(=O)c4ccc5cc(NS(=O)(=O)c6ccc(C(C)C)cc6)ccc5c4)c4cc(O)cc(O)c4-c4cc3ccc4O)C(O)c3ccc(c(Cl)c3)Oc3cc2cc(c3OC2OC(CO)C(O)C(O)C2OC2CC(C)(N)C(O)C(C)O2)Oc2ccc(cc2Cl)C1O (stereo not drawn) [Vanc-66] is 4.11

Sure, the documented pIC50 for CNC(CC(C)C)C(=O)NC1C(=O)NC(CC(N)=O)C(=O)NC2C(=O)NC3C(=O)NC(C(=O)NC(C(=O)NCCCNC(=O)c4ccc5cc(NS(=O)(=O)c6ccc(C)cc6)ccc5c4)c4cc(O)cc(O)c4-c4cc3ccc4O)C(O)c3ccc(c(Cl)c3)Oc3cc2cc(c3OC2OC(CO)C(O)C(O)C2OC2CC(C)(N)C(O)C(C)O2)Oc2ccc(cc2Cl)C1O (stereo not drawn) [Vanc-65] is 4.27

Sure, the documented pIC50 for CCc1cccc(C)c1NC(=O)CNC(=O)C1NC(=O)C2NC(=O)C(NC(=O)C3NC(=O)C(CC(N)=O)NC(=O)C(NC(=O)C(CC(C)C)NC)C(O)c4ccc(c(Cl)c4)Oc4cc3cc(c4OC3OC(CO)C(O)C(O)C3OC3CC(C)(N)C(O)C(C)O3)Oc3ccc(cc3Cl)C2O)c2ccc(O)c(c2)-c2c(O)cc(O)cc21 (stereo not drawn) [Vanc-19] is 4.20

Sure, the documented pIC50 for CN[C@H](CC(C)C)C(=O)N[C@H]1C(=O)N[C@@H](CC(N)=O)C(=O)N[C@H]2C(=O)N[C@H]3C(=O)N[C@H](C(=O)N[C@H](C(=O)NCC(=O)Nc4ccc5cc6ccccc6cc5c4)c4cc(O)cc(O)c4-c4cc3ccc4O)[C@H](O)c3ccc(c(Cl)c3)Oc3cc2cc(c3O[C@@H]2O[C@H](CO)[C@@H](O)[C@H](O)[C@H]2O[C@H]2C[C@](C)(N)[C@H](O)[C@H](C)O2)Oc2ccc(cc2Cl)[C@H]1O [Vanc-59] is 4.06
